EC50 by entry:
Target: Protein RecA (Mycobacterium tuberculosis, UniProt P9WHJ3)
Test: Fluorescence Cell-Free Homogeneous Dose Retest to Identify Inhibitors of RecA-Intein Splicing Activity. [Related pubchem assays (depositor defined):AID2097, AID2223, AID489010, AID492950]
Type: functional
Calls of active or inactive are those of the source. Cut-off read from the data, not from the text of the source: actives have a measured EC50 and inactives only a lower limit.
MEASURED PARAMETER: EC50

CHEM SMILES	READING
CCOC(=O)N1CCC2(CC1)C(C#N)=C(N)Oc1[nH]nc(C)c12	1.43 µM (active)
CC(=O)Nc1cccc(OC(=O)COc2ccc(Br)cc2)c1	20.6 µM (active)
COc1ccc(C=C(c2nc3ccccc3s2)c2nc3ccccc3s2)cc1O	7.08 µM (active)
CCOC(=O)C(Nc1ccc2ccccc2c1)C(=O)OCC	13 µM (active)
Nc1ccc(N)c(C(=O)O)c1	3.76 µM (active)
Nc1ccc2cn[nH]c2c1	9.02 µM (active)
Nc1ccc2[nH]ncc2c1	36.1 µM (active)
